The measurements presented in this section are drawn from the Human Domainome abundance scans (Beltran et al. 2025).

B1: Segment polarity protein dishevelled homolog DVL-3, residues 2 to 81; numbered along this chain, Q92997 (parent)
chain: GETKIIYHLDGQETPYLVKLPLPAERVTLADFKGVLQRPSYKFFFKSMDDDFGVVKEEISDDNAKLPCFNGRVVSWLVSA

Variants of: B1
Assay: abundance fitness (aPCA) (normalised: wild type 0, dead -1); higher = more abundant; growth selection in yeast, the domain comes from the species named
Details: Homo sapiens
true means recorded abundance fitness is -0.7 or above; false means it is below -0.7.

[
  {
    "variant": "K19T",
    "assigned label": "true"
  },
  {
    "variant": "F43Q",
    "assigned label": "false"
  },
  {
    "variant": "N63L",
    "assigned label": "true"
  },
  {
    "variant": "D62Y",
    "assigned label": "true"
  },
  {
    "variant": "L20Q",
    "assigned label": "false"
  },
  {
    "variant": "L66M",
    "assigned label": "true"
  },
  {
    "variant": "S47T",
    "assigned label": "true"
  },
  {
    "variant": "K33W",
    "assigned label": "true"
  },
  {
    "variant": "S79G",
    "assigned label": "true"
  },
  {
    "variant": "S75F",
    "assigned label": "false"
  },
  {
    "variant": "I59V",
    "assigned label": "true"
  },
  {
    "variant": "P23T",
    "assigned label": "false"
  },
  {
    "variant": "P23R",
    "assigned label": "true"
  },
  {
    "variant": "I59H",
    "assigned label": "true"
  },
  {
    "variant": "R72H",
    "assigned label": "true"
  },
  {
    "variant": "F44Y",
    "assigned label": "true"
  },
  {
    "variant": "K56N",
    "assigned label": "true"
  },
  {
    "variant": "P67Y",
    "assigned label": "true"
  },
  {
    "variant": "G53T",
    "assigned label": "true"
  },
  {
    "variant": "L36D",
    "assigned label": "true"
  },
  {
    "variant": "F69K",
    "assigned label": "true"
  },
  {
    "variant": "L29K",
    "assigned label": "false"
  }
]
